Test system: Fibroblast
Test details: Incucyte cell viability with human fibroblast; note: unitless GR value; below 1 slowed growth and below 0 cell loss
Format: toxicity, cell-based
Measurement setup: 12 h, 10 µM, compound concentration 10 uM, replicate number 2
Attribute measured: Growth Rate

[
  {
    "Structure smiles": "CSc1ccc(C(=O)/C=C/c2cc(C)c(OC(C)(C)C(=O)O)c(C)c2)cc1",
    "Obs value": 0.59
  },
  {
    "Structure smiles": "COCCNc1cc(NC(=O)N2CCCc3cc(CN4CCOCC4=O)c(C=O)nc32)ncc1C#N",
    "Obs value": 0.58
  },
  {
    "Structure smiles": "COc1cc2nc(C)nc(NC3(c4ccccc4)CC3)c2cc1OC",
    "Obs value": 0.7
  },
  {
    "Structure smiles": "Cc1ccc(NC(=O)c2ccc3cnccc3c2)cc1C(=O)Nc1cnc(Nc2cccc(NC3CCN(C(=O)/C=C/CN(C)C)CC3)c2)nc1",
    "Obs value": -0.71
  },
  {
    "Structure smiles": "Oc1ccc(-c2nc(-c3ccncc3)c(-c3ccc(F)cc3)[nH]2)cc1",
    "Obs value": 0.62
  }
]

Let us examine a further case.
Request: What does the record list as Growth Rate for O=C1CCCc2[nH]c(-c3ccnc(NCC4CC4)c3)c(Nc3ccccc3)c21 ?
Result: 0.57

###

Listed next: entries and their corresponding Growth Rate.
Tested on: U2OS
Test details: Incucyte cell viability with U2OS; note: unitless GR value; below 1 slowed growth and below 0 cell loss
Assay type: toxicity, cell-based
Measurement setup: human, 0 h, 10 µM, compound concentration 10 uM, replicate number 1
// print number alone

[
  {
    "Compound": "Cc1nn(C)c(COc2ccc(N3CCN(S(=O)(=O)N(C)C)CC3)cc2)c1-c1cccc2c(CCCOc3cccc4ccccc34)c(C(=O)O)n(CCN3CCOCC3)c12",
    "Growth Rate": 0.4
  },
  {
    "Compound": "O=C1NC(=NCc2cccs2)SC1=Cc1ccc2ncccc2c1",
    "Growth Rate": -1
  },
  {
    "Compound": "COc1ccc(CCCN2CCC(COC(c3ccccc3)c3ccccc3)CC2)cc1.Cl",
    "Growth Rate": 0.33
  },
  {
    "Compound": "CC(C)S(=O)(=O)c1ccccc1Nc1nc(N[C@@H]2CCCN(CCCCCCCNC(=O)COc3cccc4c3C(=O)N(C3CCC(=O)N(C)C3=O)C4=O)C2)ncc1Cl (stereo partly specified)",
    "Growth Rate": -1
  },
  {
    "Compound": "CC(C)(C#N)c1cc(Cn2cncn2)cc(C(C)(C)C#N)c1",
    "Growth Rate": -0.51
  }
]

Request: What does the record list as Growth Rate for Fc1ccc(-c2nc(-c3ccc4ccccc4c3F)[nH]c2-c2ccncc2)cc1 ?
Result: -1

Request: Let us now turn to NC(=O)c1ccc(-c2nc(-c3ccc4c(c3)OCO4)c(-c3ccccn3)[nH]2)cc1.O
Result: -0.57

Request: Let us now turn to CC1(C)CC(CN2CCC(F)(CNC(=O)c3cc(Cl)cc(Cl)c3)CC2)CCO1 (stereo unspecified)
Result: -0.43

Request: Let us now turn to CNS(=O)(=O)c1ccc(N(C)C)c(Nc2ncnc3cc(OC)c(OC)cc23)c1
Result: -1

Request: Let us now turn to O=C(O)c1ccc2c(c1)nc(NCc1ccccc1)c1ncncc12
Result: 0.98

Request: Let us now turn to CCn1c(-c2nonc2N)nc2ccccc21 [GW549034X]
Result: -1

Request: Let us now turn to Cl.Clc1cc2cc(c1)-c1cnn3ccc(nc13)NCCOCCO2
Result: -0.1

Request: Let us now turn to Cn1ncc(NC(=O)c2nc(-c3c(F)cccc3F)sc2N)c1N1CC[C@@H](N)[C@H](F)CC1
Result: -1
